Data origin, for the record: PubChem BioAssay (NCI)

// endpoint GI50 / system U251 CNS

Examples with answers:
| COMPOUND | MEASUREMENT_TARGET | GI50 |
| --- | --- | --- |
| CCn1cc(/C=C2\Oc3cc(OCC#N)ccc3C2=O)c2cc(OC)ccc21 | U251 CNS | 0.425 µM |
| C=C1C(=O)O[C@H]2[C@H]1CC/C(Cn1cc(-c3ccc(N)cc3)nn1)=C\CC[C@@]1(C)O[C@@H]21 | U251 CNS | 4.16 µM |

# lookup: c1ccc(-c2nc3n(c2-c2ccc4c(c2)OCO4)CCC3)nc1 on U251 CNS, GI50 = 6.96 µM

# lookup: Nc1c(C(=O)c2cccc(C#CCN3CCCCC3)c2)cnn1-c1ccc(F)cc1 on U251 CNS, GI50 = > 25 µM

# lookup: COc1ccc(C2=NC(=O)NC2c2ccc(OC)cc2)cc1 (stereo not drawn) on U251 CNS, GI50 = 7.85 µM

# lookup: O=C(NN1C(=O)CSC1c1cccc(Cl)c1)C(O)c1ccccc1 (stereo not drawn) on U251 CNS, GI50 = 59.2 µM

# lookup: COc1ccc(-c2c(C#N)c(N)nc(N3CCOCC3)c2C#N)cc1 on U251 CNS, GI50 = 27.4 µM

# lookup: CN(Cc1ccc(F)cc1)c1ccc(CO)c(Cl)c1 on U251 CNS, GI50 = 4.63 µM

====

Listing of entries alongside the reported TGI.
- System: MDA-MB-231 breast
- PROCEDURE_SUMMARY: NCI tumour cell line growth inhibition, 48 h

| COMPOUND | OBSERVED |
| --- | --- |
| O=C(c1ccccc1)N1C(=O)N(c2ccccc2)C(=Nc2ccccc2)C1=Nc1ccccc1 | > 100 µM |
| COc1ccc(C(=O)c2sc3nc(-c4ccccc4OC)ccc3c2N)cc1OC | 42.3 µM |
| NC(=O)c1cccnc1 | > 100 µM |
| COc1cccc(CNc2ncnc3c2ncn3C2OC(CO)C(O)C2O)c1O (stereo not given) | 0.111 µM |

# compound CN(Cc1ccc(F)cc1)c1ccc(CO)c(Cl)c1 ; its TGI = > 100 µM

# compound CC1CN=C(Nc2cccc(F)c2)S1 (stereo not given) ; its TGI = 25.2 µM

====

Listing of entries alongside the reported TGI.
- System: RXF 393 renal
- PROCEDURE_SUMMARY: NCI tumour cell line growth inhibition, 48 h

Examples with answers:
| COMPOUND | MEASUREMENT_TARGET | OBSERVED_PROPERTY | OBSERVED |
| --- | --- | --- | --- |
| Cc1ccc2nc3n[nH]c(N)c3nc2c1 | RXF 393 renal | TGI | > 100 µM |
| O=C(Cn1cc(Br)c(=O)[nH]c1=O)c1ccc(-c2ccccc2)cc1 | RXF 393 renal | TGI | > 100 µM |
| COc1ccc(C2=NC(=O)NC2c2ccc(OC)cc2)cc1 (stereo unspecified) | RXF 393 renal | TGI | 51.5 µM |
| COc1cc(C2c3cc4c(cc3OC(NNS(=O)(=O)c3ccc(C)cc3)C2C)OCO4)cc(OC)c1OC (stereo unspecified) | RXF 393 renal | TGI | 23.8 µM |
| O=C(/C=C1\Sc2ccccc2N=C1CC(=O)c1ccccc1)c1ccccc1 | RXF 393 renal | TGI | > 100 µM |
| Cc1ccc(Cl)cc1N=NC(=O)NNc1cc(Cl)ccc1C | RXF 393 renal | TGI | 72.7 µM |
| COc1ccc(-c2nc(-c3nc4cc(Cl)c(F)cc4[nH]3)c3ccccn23)cc1 | RXF 393 renal | TGI | > 100 µM |
| CCCCCCC(O)CC[C@H]1CCC[C@@H](C)N1 (stereo partly specified) | RXF 393 renal | TGI | > 100 µM |

# lookup: Nc1ccc(-c2nc3ccc(F)cc3s2)cc1Cl on RXF 393 renal, TGI = > 73.8 µM

# lookup: COC(=O)c1cc(=O)nc2cc3cccccc3n12 on RXF 393 renal, TGI = > 100 µM

# lookup: CCC(C)C(N)C(=O)N/N=C\c1c2c(nc3ccccc13)-c1cc3c(c(=O)n1C2)COC(=O)[C@]3(O)CC (stereo partly specified) on RXF 393 renal, TGI = 0.218 µM
